- System: A2780
- assay-procedure: Resistance index, IC50 for cisplatin-resistant human A2780 cells/IC50 for cisplatin-sensitive human A2780 cells
- Assay type: ADME, cell-based
readout-type: Ratio IC50
Give bare numbers.

Example results:
compound_smiles=CSCC[C@@H]1NC(=O)[C@]2(CSC3=C2C(=O)c2ccccc2C3=O)NC1=O experimental_system=A2780 numeric_readout=4.4
compound_smiles=O=C1C2=C(C(=O)c3ccccc31)[C@@]1(CS2)NC(=O)[C@H](CS)NC1=O experimental_system=A2780 numeric_readout=10
compound_smiles=CSCC[C@@H]1NC(=O)[C@@]2(CSC3=C2C(=O)c2ccccc2C3=O)NC1=O experimental_system=A2780 numeric_readout=4.4
compound_smiles=O=C1C2=C(C(=O)c3ccccc31)[C@]1(CS2)NC(=O)[C@H]2CCCN2C1=O experimental_system=A2780 numeric_readout=10

The value of Ratio IC50 measured for the compound O=C1C2=C(C(=O)c3ccccc31)[C@@]1(CS2)NC(=O)[C@@H]2CCCN2C1=O turned out to be 2.4
